Target: human TLR8 (Homo sapiens, UniProt Q9NR97)
Construct: HEK293 cells stably co-transfected with the appropriate hTLR, MD2, and secreted alkaline phosphatase (sAP); expressed in transfected cells; host or cells: HEK293 (HEK-Blue™)
Sequence (Q9NR97 27-1041): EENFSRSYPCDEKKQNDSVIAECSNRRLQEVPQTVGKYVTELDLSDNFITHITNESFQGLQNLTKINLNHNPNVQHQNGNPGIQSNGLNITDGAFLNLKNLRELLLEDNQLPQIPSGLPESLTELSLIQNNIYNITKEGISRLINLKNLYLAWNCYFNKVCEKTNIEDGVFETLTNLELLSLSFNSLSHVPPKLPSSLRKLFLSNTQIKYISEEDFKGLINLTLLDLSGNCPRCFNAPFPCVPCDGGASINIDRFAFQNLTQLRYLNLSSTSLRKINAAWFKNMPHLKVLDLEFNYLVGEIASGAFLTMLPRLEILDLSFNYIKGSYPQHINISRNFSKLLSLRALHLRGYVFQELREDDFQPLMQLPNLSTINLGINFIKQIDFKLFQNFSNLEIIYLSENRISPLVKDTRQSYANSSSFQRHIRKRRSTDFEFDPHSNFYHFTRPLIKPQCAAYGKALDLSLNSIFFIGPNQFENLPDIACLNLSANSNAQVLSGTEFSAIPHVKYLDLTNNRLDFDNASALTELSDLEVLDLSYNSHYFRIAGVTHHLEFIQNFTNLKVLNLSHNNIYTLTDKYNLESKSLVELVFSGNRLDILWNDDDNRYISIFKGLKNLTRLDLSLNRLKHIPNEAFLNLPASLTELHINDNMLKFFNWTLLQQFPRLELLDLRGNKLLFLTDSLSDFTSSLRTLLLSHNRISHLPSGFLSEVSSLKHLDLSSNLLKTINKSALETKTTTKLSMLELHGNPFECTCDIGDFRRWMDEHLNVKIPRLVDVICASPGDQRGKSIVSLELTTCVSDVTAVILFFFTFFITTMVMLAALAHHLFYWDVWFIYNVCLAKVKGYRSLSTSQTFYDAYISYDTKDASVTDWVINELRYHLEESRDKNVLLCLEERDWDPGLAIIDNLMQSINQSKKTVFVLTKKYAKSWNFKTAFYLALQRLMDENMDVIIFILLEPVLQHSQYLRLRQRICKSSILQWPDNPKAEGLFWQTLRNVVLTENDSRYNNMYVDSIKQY
Assay: human TLR8-specific HEK-Blue reporter gene assay (NF-κB induction)
Type: cell-based
Conditions: cell-based TLR8-specific NF-κB transactivation assay; read-out: TLR8 agonistic potency EC50

>  <compound>
CCCc1cc2ccnc(N)c2o1 [Compound A28a, 2-propylfuro[2,3-c]pyridin-7-amine]

>  <testTarget>
human TLR8 (Homo sapiens, UniProt Q9NR97)

>  <EC50 (µM)>
24.4

$$$$
>  <compound>
CCCCc1cc2ccnc(N)c2o1 [Compound A28b, 2-butylfuro[2,3-c]pyridin-7-amine]

>  <testTarget>
human TLR8 (Homo sapiens, UniProt Q9NR97)

>  <EC50 (µM)>
46.2

$$$$

Source listed as patent US10654807B2.
